# Tested on: UO-31 renal
# EXPERIMENT NOTES: NCI-60 one-dose screen, 48 h (100 = growth as untreated, 0 = no growth, -100 = all killed)
# EXPERIMENTAL SETUP: 10 µM unless noted
Compounds without any hit were thinned out: in the full panel of roughly 83,000, 20% have a hit.
# binning rule on growth: lowest (below 40%), middle (40% to below 70%), highest (70% or more)

IN: Could you tell me which band CCCc1cc(C(N)=S)ccn1 belongs to?
OUT: highest

* * *

# Test system: HCC-2998 colon
# EXPERIMENT NOTES: NCI-60 one-dose screen, 48 h
# EXPERIMENTAL SETUP: 10 µM unless noted
About 83,000 compounds went through this panel and 20% of them were active in at least one assay; those are over-represented in the sample as a whole. Active and inactive are the calls of the source. Rule for the calls: active = growth percent below 10; inactive = the rest.
Classes to choose from: active, inactive

Solved cases (2 shown):
• O=C1OCC2=C1C(c1cccc(C(F)(F)F)c1)c1cc3c(cc1N2CCO)OCCO3 (centres undefined) = active
• Cc1c(C(=O)OCCCCOC(=O)c2c(C)n(C)c3scc[n+]23)[n+]2ccsc2n1C = inactive

IN: Please indicate how the test categorized CCOC(=O)C(=Cc1ccc(C#N)cc1)C(=O)OCC .
OUT: inactive

IN: Please indicate how the test categorized COc1ccc(C/C(C)=C(/c2ccc(OCCN3CCCCCC3)cc2)c2ccc(OC(=O)c3ccccc3)cc2)cc1 .
OUT: inactive

IN: Please indicate how the test categorized Cc1cc2nc(C(Cl)Cl)nc(-c3ccc(Cl)cc3)n2n1 .
OUT: active

IN: Please indicate how the test categorized N#C/C(=C\c1ccc(Br)cc1)n1nnc2c(F)cccc21 .
OUT: active

* * *

# System: NCI-H522 lung
# EXPERIMENT NOTES: NCI-60 one-dose screen, 48 h (100 = growth as untreated, 0 = no growth, -100 = all killed)
# EXPERIMENTAL SETUP: 10 µM unless noted
This is part of a sample that, as a whole, favours compounds with a hit. Of some 83,000 tested, about 20% had one in any assay.
growth reference
Lab book: enter the figure in %, no units written.

A selection of reference data follows.
* Oc1ccccc1C=Nc1ccc(N2CCN(c3ccccc3)CC2)cc1 | 95.7
* CN(C)CCCn1c2c(c3ccc(N4CCNCC4)cc3c1=O)C(=O)c1ccccc1-2 | 5.51
* BrC1=C(Br)C(Br)(Br)C(Br)=C1Br | -15.2

The measured growth associated with O=C1C=C(Nc2ccccc2)c2ncccc2C1=O reads -75.3

The measured growth associated with COC(=O)c1nc(-c2ccccc2)oc1S(=O)(=O)N(C)CCO reads 32.7

The measured growth associated with COc1cc(CNC(=O)CCCC/C=C/C(C)C)ccc1OCc1cn(-c2ccc([N+](=O)[O-])cc2)nn1 reads 78.2

* * *

# Tested on: MCF7 breast
# EXPERIMENT NOTES: NCI-60 one-dose screen, 48 h (100 = growth as untreated, 0 = no growth, -100 = all killed)
# EXPERIMENTAL SETUP: 10 µM unless noted
About 83,000 compounds went through this panel and 20% of them were active in at least one assay; those are over-represented in the sample as a whole.
REPORTED METRIC: growth (%)
Lab book: enter the figure in %, no units written.

A selection of reference data follows.
• COc1c(O)c(O)cc2c3c(oc12)CC(c1ccc2c(c1)OCO2)CC3=O (centres undefined) = 35.5
• Cc1ccc(-c2nc([P+](c3ccccc3)(c3ccccc3)c3ccccc3)c(Nc3ccccc3)o2)cc1 = 0.233
• COc1cc(/C=C2\C(=O)N(CCCCn3c4ccccc4c(=O)c4ccccc43)c3ccccc32)cc(OC)c1O = 22.8
• COc1cc(/C=C(/c2ccccc2)[N+](=O)[O-])c(OC)c2c1OCO2 = -36.4
• C[C@@H]1CC[C@@H]2[C@@H]1[C@H](OC(=O)/C=C/c1ccccc1)[C@]1(c3ccccc3)C[C@@H](NC(=O)CO)[C@@]2(C)O1 = 79.4

The measured growth associated with CN1C(=O)N(C)C2(c3ccccc3)N(CC(=O)Nc3ccccc3O)C(=O)NC12c1ccccc1 (centres undefined) reads 101

The measured growth associated with N#CC(Cc1cccc2ccccc12)c1cc2ccccc2[nH]1 (centres undefined) reads 82.5

The measured growth associated with CCCn1nc(C(=O)N2CCCCC2)c2c1CCC(N1CCC(c3ccncc3)CC1)C2 (centres undefined) reads 99.6

The measured growth associated with COc1ccc(-c2csc(NC(=O)CN3CCN(CCO)CC3)n2)cc1NS(=O)(=O)c1cccc2c(N(C)C)cccc12 reads 59.6

* * *

# System: OVCAR-8 ovarian
# EXPERIMENT NOTES: NCI-60 one-dose screen, 48 h (100 = growth as untreated, 0 = no growth, -100 = all killed)
# EXPERIMENTAL SETUP: 10 µM unless noted
Compounds without any hit were thinned out: in the full panel of roughly 83,000, 20% have a hit.
Please use YES whenever growth is not below 70%, and NO whenever it is.

- O=C1/C(=C/c2ccc(-c3cccc(C(F)(F)F)c3)o2)SC(=S)N1CCc1ccc(O)cc1: NO

# input for lookup
IN: Is reported growth greater than or equal to 70% here: CCc1c2c(nc3ccc(OCc4ccc(B5OC(C)(C)C(C)(C)O5)cc4)cc13)-c1cc3c(c(=O)n1C2)COC(=O)[C@]3(O)CC
OUT: NO

* * *

growth reference
# System: MDA-MB-231 breast
# EXPERIMENT NOTES: NCI-60 one-dose screen, 48 h (100 = growth as untreated, 0 = no growth, -100 = all killed)
# EXPERIMENTAL SETUP: 10 µM unless noted
The panel holds about 83,000 compounds, 20% with a hit somewhere; the sample as a whole holds those more often.
Lab book: enter the figure in %, no units written.

A selection of reference data follows.
• Cc1cccc(-c2nnc(SCC(=O)Nc3ncc(Cc4ccccc4)s3)n2N2C(=O)CSC2=S)c1 = 10
• Nc1nc(CSc2n[nH]c(N)n2)nc(Nc2ccccc2)n1 = 105
• CC(=O)N1N=C(c2ccc(F)cc2)CC1c1sc(N(C)Cc2ccccc2)nc1Cl (stereo not given) = 101
• O=C1c2cc3c(cc2-c2c1c1ccc(Cl)cc1c(=O)n2CCCn1ccnc1)OCO3 = 46.4

Proceeding to the next compound to report its growth.
Param item: COc1ccc2nc3cc(Cl)ccc3c(NCCCNCCC(C)O)c2c1 (stereo not given) ; param system: MDA-MB-231 breast; output growth: -47.5

* * *

# Tested on: A498 renal
# EXPERIMENT NOTES: NCI-60 one-dose screen, 48 h
# EXPERIMENTAL SETUP: 10 µM unless noted
Compounds without any hit were thinned out: in the full panel of roughly 83,000, 20% have a hit. The source made the active and inactive calls. How the source made its calls: active means growth percent below 10; inactive means the rest.
Classes to choose from: yes (1) (active), no (0) (inactive)

* COC1=CC(=O)C(OC)=C(O)C1=O | no (0)
* COc1ccc(N2CCN(S(=O)(=O)c3oc(-c4ccccc4)nc3C#N)CC2)cc1 | no (0)
* CCCCSc1ccc2nc(-c3ccc(OCCCN=C(N)N)cc3)cn2c1 | no (0)
* CC1=C2[C@@H](CC1)[C@]1(C)O[C@@](C3CC3)(C[C@H]1OC(=O)CO)[C@H]2OC(=O)/C=C/c1ccccc1 | yes (1)
* CCOC(=O)c1c(-c2ccc(OC)cc2)c(C#N)c2c(C#N)c(N)nn2c1N | yes (1)
* CN1C(=O)N(C)C2(c3ccccc3)N(CC(=O)Nc3ccccc3O)C(=O)NC12c1ccccc1 (centres undefined) | no (0)

IN: Please indicate how the test categorized C=C(CNCCO)[C@@H]1CC[C@]2(CO)CC[C@]3(C)[C@H](CC[C@@H]4[C@@]5(C)CCC(NCCc6ccc(O)cc6)C(C)(C)[C@@H]5CC[C@]43C)[C@@H]12 (some centres undefined) .
OUT: yes (1)

IN: Please indicate how the test categorized Cc1ccc(/C=C(\C#N)c2cc3ccccc3[nH]2)cc1 .
OUT: no (0)

IN: Please indicate how the test categorized Cc1ccc2c(c1)C(C)Cc1c(ncnc1-n1cnc3cc(C)ccc31)N2C (centres undefined) .
OUT: no (0)

* * *

# Tested on: SNB-19 CNS
# EXPERIMENT NOTES: NCI-60 one-dose screen, 48 h
# EXPERIMENTAL SETUP: 10 µM unless noted
Compounds without any hit were thinned out: in the full panel of roughly 83,000, 20% have a hit. Activity calls are given as the source filed them. How the source made its calls: active means growth percent below 10; inactive means the rest.
Classes to choose from: active, inactive

• CCCCC1COc2cccc3c2N1C=C/C3=C\C(=O)N(C)c1cccc(Cl)c1 (stereo not given) = inactive
• Cc1ccc2[nH]c(=S)[nH]c(=O)c2c1 = inactive
• O=C1/C(=C/c2ccccc2)CN(C(=O)C(Cl)Cl)C/C1=C\c1ccccc1 = active
• COc1ccc(-c2csc(NC(=O)CN3CCN(CCO)CC3)n2)cc1NS(=O)(=O)c1cccc2c(N(C)C)cccc12 = inactive

# input for lookup
IN: Please indicate how the test categorized Nc1nc(N)c2c(n1)NC(c1cccc(Nc3ccnc4cc(C(F)(F)F)ccc34)c1)CC(c1ccc(F)cc1)=N2 (stereo not given) .
OUT: inactive
